Assign IC50 to each entry below.
Test system: E. coli BW25113 ΔtolC growth inhibition, OD615
Assay: growth inhibitors of E. coli tolC mutant, dose response, strain BW25113 ΔtolC::kan (AID 617);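 further: growth read after 20 h at 37 °C with compound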

Q: # lookup: IC50 of Cc1ccc(C)c(SCC(=O)Nc2nnc(-c3ccccc3)o2)c1
Ans: 4.69 µM

Q: Which measured IC50 value corresponds to COc1ccc(-n2cnc3cc(NCc4cccs4)ccc32)cc1 ?
Ans: 10.6 µM

Q: Please report the recorded IC50 for CCCc1[nH]nc2c1C(c1ccc(OC)c(CSC3=NCCS3)c1)C(C#N)=C(N)O2 (stereo not given) .
Ans: 69.6 µM

Q: Returns the measured IC50 for the input molecule. Input: Cc1nn(-c2ccccc2)c(Cl)c1C(=O)Nc1nnc(C2CCCC2)s1
Ans: 8.48 µM

Q: Would you kindly share the measured IC50 for O=C(Nc1scc(-c2cccs2)c1C(=O)O)c1cccs1 ?
Ans: 10.5 µM

Q: Look up IC50: O=C(NCc1ccco1)c1ccc(S(=O)(=O)N2CCCc3ccccc32)cc1
Ans: 30.2 µM

Q: # get_value(readout='IC50', item= COc1ccc(OCC(O)Cn2c(=N)n(Cc3ccccc3)c3ccccc32)cc1 (stereo not given) )
Ans: 23.9 µM

Q: I am curious: what IC50 value has been reported for Cc1cccc(-n2ncc3c(NCc4ccc5c(c4)OCO5)ncnc32)c1 ?
Ans: 8.94 µM

Q: Tell me the measured IC50 of N#Cc1nc(Cc2cccc3ccccc23)oc1NCCCn1ccnc1 , please.
Ans: 24.2 µM

Q: Fill in: IC50 of Cc1ccc(C2C(S(C)(=O)=O)=C(O)C(=O)N2c2ccccc2)cc1 (stereo not given) (tested in a mixture with another compound) is ___
Ans: 4.81 µM

* * *

Test system: E. coli BW25113 ΔtolC growth inhibition, OD615
Test: growth inhibitors of E. coli tolC mutant, dose response, strain BW25113 ΔtolC::kan (AID 617);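 further: growth read after 20 h at 37 °C with compound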
pIC50: −log10 of the molar value.
Reported property: pIC50

Q: I have this compound here, CCOC(=O)N1CCN(C(=O)COc2ccc(S(=O)(=O)Nc3ccc(OCC)cc3)cc2)CC1 , and I need its recorded pIC50.
Ans: 5.70

Q: Query (compound): CSCc1nnc(NC(=O)c2ccc(S(=O)(=O)N(CC(C)C)CC(C)C)cc2)o1 ; field requested: pIC50
Ans: 6.52

Q: Report pIC50 for Cn1c(=O)n(CCCOc2ccc(Br)cc2)c2ccccc21 please.
Ans: 4.86

Q: Name the recorded pIC50 for CCC(c1nnnn1C1CCCCC1)N(Cc1ccco1)Cc1cc2ccc(OC)cc2[nH]c1=O (configuration not stated) .
Ans: 4.88

Q: State the recorded pIC50 for this entry: O=C(CSc1ncnc2c1oc1ccccc12)N1CCCc2ccccc21
Ans: 4.82

Q: Recorded pIC50 for O=C(CCSc1nc(-c2ccco2)cc(C(F)(F)F)n1)N1CCCc2ccccc21 , please?
Ans: 5.04

Q: Which pIC50 value is on record for CCS(=O)(=O)n1nc(-c2ccccc2)nc1SCc1ccccc1 ?
Ans: 4.80

Q: Look at this compound and give its reported pIC50. Cc1ccc2oc(=O)n(Cc3ccccc3OC(C)C)c2c1
Ans: 5.05

Q: GET /values?readout=pIC50&item= O=C(Nc1nnc(-c2ccc3c(c2)CCCC3)o1)C1COc2ccccc2O1 (configuration not stated)
Ans: 6.35

Q: # lookup: pIC50 of CC(OC(=O)c1ccccc1NCc1ccco1)C(=O)Nc1ncc(Cl)cc1Cl (configuration not stated)
Ans: 4.41

Q: I would be grateful if you could share the reported pIC50 for Cc1nn(Cc2ccc(Cl)cc2)c(C)c1NC(=O)c1noc2c1CCCCC2 .
Ans: 4.87

Q: # pIC50 lookup, item CCOc1ccccc1C(=O)NC(C(=O)OCC(=O)Nc1nnc(-c2ccccc2)o1)C(C)C (configuration not stated)
Ans: 5.11

Q: Which pIC50 is reported for this compound? Oc1c(C(c2cccs2)N2CCN(c3cccc(Cl)c3)CC2)sc2ncnn12 (configuration not stated)
Ans: 4.86

Q: Query (compound): Cn1c(CSc2nc3ccccc3s2)nc2ccccc21 ; field requested: pIC50
Ans: 4.65

Q: What value of pIC50 has been reported for the following compound? [O-][N+]1=c2ccc(Nc3ccccc3)cc2=NC12CCCCC2
Ans: 4.82

Q: Given O=C(Cc1ccccc1)Nc1ccccc1N1CCN(c2ccccc2)CC1 , state its recorded pIC50.
Ans: 4.19

Q: So what does the record say about pIC50 for Cc1onc(-c2ccccc2)c1C(=O)Nc1nnc(N(C)Cc2ccccc2)s1 ?
Ans: 4.62

Q: What measured pIC50 goes with Oc1ccccc1-c1nc(NCC2CCCO2)c2ccccc2n1 (configuration not stated) ?
Ans: 4.04

Q: Data request, read-out pIC50, for O=C1C2=C(Nc3ccccc3SC2c2ccco2)c2ccccc21 (configuration not stated)
Ans: > 6.70

Q: What does the data say about its pIC50? Entry: C=C(C)COc1ccc(-c2n[nH]c(C)c2Oc2ccccc2OC)c(O)c1
Ans: 5.08

Q: Which pIC50 is reported for this compound? COC(=O)c1sc(N2C(=O)C(O)=C(C(=O)c3ccc(C)o3)C2c2ccc(F)cc2)nc1C (configuration not stated)
Ans: 4.81

Q: Entry Cc1ccc(Nc2cc(C)nn2-c2nc(C)cc(=O)[nH]2)cc1 : reported pIC50 = ?
Ans: 6.74

* * *

System: E. coli BW25113 ΔtolC growth inhibition, OD615
Test: growth inhibitors of E. coli tolC mutant, dose response, strain BW25113 ΔtolC::kan (AID 617);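 further: growth read after 20 h at 37 °C with compound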
Reported property: IC50

Q: Data request, read-out IC50, for CN(C)S(=O)(=O)N(Cc1ccc(Br)cc1)c1ccccc1
Ans: 12.9 µM

Q: Return reported IC50; argument: CC(C)(C)C1CCC2(CC1)C(C#N)=C(SCC(=O)NC1CCCCC1)NC(=O)C2C#N (stereo unspecified)
Ans: 6.1 µM

Q: Look up IC50: CC(C)COc1ccc(-c2nnc(-c3ccco3)o2)cc1
Ans: 40.6 µM

Q: I'd like to know its IC50. The molecule in question is O=C(CN(C1CC1)S(=O)(=O)c1ccc(S(=O)(=O)NC2CCCCC2)cc1)Nc1ccccc1
Ans: 10.5 µM

Q: Sample COc1ccc(NS(=O)(=O)c2ccc3oc(Nc4ccc5c(c4)OCCO5)nc3c2)cc1 — what was its IC50?
Ans: 7.68 µM

Q: I am curious: what IC50 value has been reported for O=C(N1CCN(c2ccccn2)CC1)N1c2ccccc2Sc2ccccc21 ?
Ans: 19.4 µM

Q: May I ask what IC50 has been recorded for O=C(Cc1ccc(Br)cc1)c1ccc(O)cc1O ?
Ans: 7.26 µM

Q: For the molecule CN(C)c1ccc(-c2nn3c(-c4ccncc4)nnc3s2)cc1 , what IC50 is on record?
Ans: 13.6 µM

Q: What value of IC50 has been recorded for this entry: Cc1cc(=O)[nH]c(SCC(=O)Nc2nc(-c3ccccc3)cs2)n1
Ans: 4.48 µM

Q: // lookup IC50 for O=C(Nc1nnc(-c2ccccc2)o1)c1ccc(Cl)cc1
Ans: 0.17 µM

Q: Requested field: IC50. Item: COc1cc(/C=C(/C#N)c2ccc(F)cc2)ccc1OCc1ccc(C(=O)O)o1
Ans: 4.94 µM

* * *

For each entry below, report its pIC50 value.
Test system: E. coli BW25113 ΔtolC growth inhibition, OD615
Assay: growth inhibitors of E. coli tolC mutant, dose response, strain BW25113 ΔtolC::kan (AID 617);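 further: growth read after 20 h at 37 °C with compound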
As a rule, pIC50 stands for the negative log10 of the concentration, concentration in M.

Q: Could you tell me which pIC50 is on file for CCCn1c(SCC(=O)Nc2ccccc2N2CCCCC2)nc2c1c(=O)n(C)c(=O)n2C ?
Ans: 4.93

Q: # pIC50 lookup, item O=C(Nc1ccc(C(F)(F)F)cc1Cl)c1ccc(Cn2cc(Br)cn2)o1
Ans: 5.00

Q: Using the record for CC(C)Cc1cc(C(=O)Nc2sc3c(c2C#N)CCCC3)no1 , report its pIC50.
Ans: 5.07

* * *

Tested on: E. coli BW25113 ΔtolC growth inhibition, OD615
Assay: growth inhibitors of E. coli tolC mutant, dose response, strain BW25113 ΔtolC::kan (AID 617);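 further: growth read after 20 h at 37 °C with compound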
pIC50: −log10 of the molar value.
Hi, to clarify the labels: Criterion met covers pIC50 from 5 upward, Criterion not met covers anything below 5.

Q: Quick check, pIC50 >= 5? COc1ccccc1C(=O)Nc1nnc(-c2ccc3c(c2)CCCC3)o1
Ans: Criterion met

Q: Please tell me: is the compound Cc1cc(NS(=O)(=O)c2ccc(NC(=O)COc3ccccc3C(C)C)cc2)no1 at or over 5 in terms of pIC50?
Ans: Criterion not met

Q: Answer whether pIC50 of Cc1cccc(N2CCN(C(=O)c3cn(C)c(=O)c4c3c3ccccc3n4C)CC2)c1C is greater than or equal to 5.
Ans: Criterion not met

Q: State whether the measured pIC50 reaches 5, counting equality as reaching it, for FC(F)(F)c1cccc(N2CCN(c3nnnn3-c3ccccc3)CC2)c1
Ans: Criterion not met

Q: # check: pIC50 of CCN(CC)S(=O)(=O)c1ccc2[nH]cc(C(=O)NCCC3=CCCCC3)c(=O)c2c1 is greater than or equal to 5
Ans: Criterion met

Q: Is pIC50 for Cc1csc(NC(=O)CSc2ncnc3c2cnn3-c2ccccc2Cl)n1 at or above 5?
Ans: Criterion not met

Q: For this compound, is measured pIC50 5 or higher? CSc1ccc(-c2cc(=O)c3ccccc3o2)cc1
Ans: Criterion not met

Q: Can Cc1cc(NC(=O)c2noc3c2CCCC3)nn1Cc1ccc(Cl)cc1 be said to have pIC50 at or above 5?
Ans: Criterion not met

Q: hey, is pIC50 for this one >= 5? O=C(Nc1cccc(Br)c1)c1cc2ccccc2o1
Ans: Criterion met

Q: For this compound, is measured pIC50 5 or higher? COc1ccccc1N1CCN(C(c2ccccc2Cl)c2nnnn2C(C)(C)C)CC1 (stereo not given)
Ans: Criterion not met
